From: ChEMBL document CHEMBL4376815

Assay Details: Half life in human infected with Plasmodium falciparum at 400 mg administered for 3 consecutive days and measured up to 192 hrs
Type: ADME
Assay Context: in vivo
Experimental Readout: half-life (h)
Answers are plain numbers, in h.

# input Which half-life is reported for this compound? CC1(C)c2nc(-c3ccc(F)cc3)c(Nc3ccc(F)cc3)n2CCN1C(=O)CN [GANAPLACIDE]
# output 44

---

Assay Details: Cmax in human at 25 to 1200 mg, po measured up to 480 hrs by HPLC-MS/MS analysis
Type: ADME, organism-based
Assay Context: in vivo
Experimental Readout: Cmax

# input Cmax lookup needed for Cc1cc(Nc2ccc(S(F)(F)(F)(F)F)cc2)n2nc(C(C)(F)F)nc2n1 , thanks.
# output 1310 to 34800 ng/mL

---

Kindly supply the reported half-life values for the records listed here.
Assay Details: Half life in human
Assay type: ADME
Be sure to follow the number with its unit.

# input So what does the record say about half-life for C[C@H]1Cc2c([nH]c3cc(Cl)c(F)cc23)[C@@]2(N1)C(=O)Nc1ccc(Cl)cc12 ?
# output 33 h

In the following, a different compound is considered.
# input Requested field: half-life. Item: C[C@H]1Cc2c([nH]c3cc(Cl)c(F)cc23)-c2c3cc(Cl)c(O)cc3nc(=O)n21
# output 25 h

---

Assay Details: AUC (0 to 24 hrs) in human at 300 mg, po by LC-MS/MS analysis
Assay Context: in vivo
Experimental Readout: AUC(0-t) at 24 h (ng·h/mL)
One number for each entry, in ng·h/mL.

# input Data request, read-out AUC(0-t) at 24 h, for C[C@H]1Cc2c([nH]c3cc(Cl)c(F)cc23)[C@@]2(N1)C(=O)Nc1ccc(Cl)cc12
# output 36000

---

Assay Details: Cmax in Wistar Hannover rat at 10 mg/kg, po by LC-MS/MS analysis
Type: ADME, organism-based
Set-up: dose 10 mg/kg, route oral
Assay Context: in vivo
What Cmax was measured for each of the following?
Enter the number, and then the unit.

# input Quick one: Cmax of C[C@H]1Cc2c([nH]c3cc(Cl)c(F)cc23)[C@@]2(N1)C(=O)Nc1ccc(Cl)cc12 ?
# output 1210 ng/mL

Here is the next item to consider.
# input Given the molecule CC1(C)c2nc(-c3ccc(F)cc3)c(Nc3ccc(F)cc3)n2CCN1C(=O)CN [GANAPLACIDE] , what is its reported Cmax?
# output 139 ng/mL

---

Assay Details: Apparent clearance in human at 300 mg, po and measured up to 96 to 144 hrs by LC-MS/MS analysis
Assay Context: in vivo, read-out: CL(app) (converted)
Experimental Readout: CL/F (mL/min)
One number for each entry, in mL/min.

# input Look up CL/F for this molecule: C[C@H]1Cc2c([nH]c3cc(Cl)c(F)cc23)[C@@]2(N1)C(=O)Nc1ccc(Cl)cc12 [CIPARGAMIN]
# output 91.7

---

Assay Details: Half life in human at 5 to 120 mg,po in fast condition
Type: ADME
Assay Context: in vivo
Experimental Readout: half-life
Just so you know, I need the unit written after the number.

# input What value of half-life has been reported for the following compound? CS(=O)(=O)c1ccc(-c2cnc(N)c(-c3ccc(C(F)(F)F)nc3)c2)cc1 [MMV-048]
# output 193 h
